target: T1, soluble human FcRn (human, UniProt P55899 24-297; P61769 21-119, biotinylated (Sulfo-NHS-LC-Biotin) in the ELISA; amine-coupled to CM5 chip in SPR); assay: ELISA, competitor human IgG
T1 construct: also called shFcRn; biotinylated shFcRn
T1 sequence (P55899 24-297 limits assumed, chain 1 of 2): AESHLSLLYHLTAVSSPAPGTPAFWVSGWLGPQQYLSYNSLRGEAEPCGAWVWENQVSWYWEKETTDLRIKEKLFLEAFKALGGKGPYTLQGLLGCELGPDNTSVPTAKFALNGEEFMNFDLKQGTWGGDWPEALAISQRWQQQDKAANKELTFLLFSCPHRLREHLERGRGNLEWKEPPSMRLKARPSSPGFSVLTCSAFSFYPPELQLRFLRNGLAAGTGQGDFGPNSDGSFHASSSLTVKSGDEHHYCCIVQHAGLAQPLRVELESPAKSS
T1 sequence (P61769 21-119 limits assumed, chain 2 of 2): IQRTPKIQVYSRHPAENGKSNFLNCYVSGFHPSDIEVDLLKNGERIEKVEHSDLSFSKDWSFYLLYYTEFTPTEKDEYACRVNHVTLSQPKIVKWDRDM
property name: pIC50
For clarity, pIC50 is expressed as the negative log10 of concentration in mol/L.

Example results:
>  <binder>
RFXTGXFGGLYPC (Pen at 3; 3PyridylAla at 6; Sar at 9; NMeLeu at 10; disulfide; C-terminal amide) [Peptide No. 250]

>  <pIC50>
5.92

$$$$
>  <binder>
RFXTGXFGGLYPC (not fully specified; Pen at 3; Thz at 6; Sar at 9; NMeLeu at 10; disulfide; C-terminal amide) [Peptide No. 248]

>  <pIC50>
5.80

$$$$

Prompt line: Supply recorded pIC50 for RFXTGXFGGLYPC (Pen at 3; His(Me)2 (di-methylated histidine) at 6; disulfide; C-terminal amide) [Peptide No. 260] here.
Response line: 5.36
